Provide the reported pIC50 of each item.
# experimental-target: full-length human ATR protein (Homo sapiens (Human), UniProt Q13535)
# Sequence (Q13535 other isoform, or with tags, fused parts or gaps): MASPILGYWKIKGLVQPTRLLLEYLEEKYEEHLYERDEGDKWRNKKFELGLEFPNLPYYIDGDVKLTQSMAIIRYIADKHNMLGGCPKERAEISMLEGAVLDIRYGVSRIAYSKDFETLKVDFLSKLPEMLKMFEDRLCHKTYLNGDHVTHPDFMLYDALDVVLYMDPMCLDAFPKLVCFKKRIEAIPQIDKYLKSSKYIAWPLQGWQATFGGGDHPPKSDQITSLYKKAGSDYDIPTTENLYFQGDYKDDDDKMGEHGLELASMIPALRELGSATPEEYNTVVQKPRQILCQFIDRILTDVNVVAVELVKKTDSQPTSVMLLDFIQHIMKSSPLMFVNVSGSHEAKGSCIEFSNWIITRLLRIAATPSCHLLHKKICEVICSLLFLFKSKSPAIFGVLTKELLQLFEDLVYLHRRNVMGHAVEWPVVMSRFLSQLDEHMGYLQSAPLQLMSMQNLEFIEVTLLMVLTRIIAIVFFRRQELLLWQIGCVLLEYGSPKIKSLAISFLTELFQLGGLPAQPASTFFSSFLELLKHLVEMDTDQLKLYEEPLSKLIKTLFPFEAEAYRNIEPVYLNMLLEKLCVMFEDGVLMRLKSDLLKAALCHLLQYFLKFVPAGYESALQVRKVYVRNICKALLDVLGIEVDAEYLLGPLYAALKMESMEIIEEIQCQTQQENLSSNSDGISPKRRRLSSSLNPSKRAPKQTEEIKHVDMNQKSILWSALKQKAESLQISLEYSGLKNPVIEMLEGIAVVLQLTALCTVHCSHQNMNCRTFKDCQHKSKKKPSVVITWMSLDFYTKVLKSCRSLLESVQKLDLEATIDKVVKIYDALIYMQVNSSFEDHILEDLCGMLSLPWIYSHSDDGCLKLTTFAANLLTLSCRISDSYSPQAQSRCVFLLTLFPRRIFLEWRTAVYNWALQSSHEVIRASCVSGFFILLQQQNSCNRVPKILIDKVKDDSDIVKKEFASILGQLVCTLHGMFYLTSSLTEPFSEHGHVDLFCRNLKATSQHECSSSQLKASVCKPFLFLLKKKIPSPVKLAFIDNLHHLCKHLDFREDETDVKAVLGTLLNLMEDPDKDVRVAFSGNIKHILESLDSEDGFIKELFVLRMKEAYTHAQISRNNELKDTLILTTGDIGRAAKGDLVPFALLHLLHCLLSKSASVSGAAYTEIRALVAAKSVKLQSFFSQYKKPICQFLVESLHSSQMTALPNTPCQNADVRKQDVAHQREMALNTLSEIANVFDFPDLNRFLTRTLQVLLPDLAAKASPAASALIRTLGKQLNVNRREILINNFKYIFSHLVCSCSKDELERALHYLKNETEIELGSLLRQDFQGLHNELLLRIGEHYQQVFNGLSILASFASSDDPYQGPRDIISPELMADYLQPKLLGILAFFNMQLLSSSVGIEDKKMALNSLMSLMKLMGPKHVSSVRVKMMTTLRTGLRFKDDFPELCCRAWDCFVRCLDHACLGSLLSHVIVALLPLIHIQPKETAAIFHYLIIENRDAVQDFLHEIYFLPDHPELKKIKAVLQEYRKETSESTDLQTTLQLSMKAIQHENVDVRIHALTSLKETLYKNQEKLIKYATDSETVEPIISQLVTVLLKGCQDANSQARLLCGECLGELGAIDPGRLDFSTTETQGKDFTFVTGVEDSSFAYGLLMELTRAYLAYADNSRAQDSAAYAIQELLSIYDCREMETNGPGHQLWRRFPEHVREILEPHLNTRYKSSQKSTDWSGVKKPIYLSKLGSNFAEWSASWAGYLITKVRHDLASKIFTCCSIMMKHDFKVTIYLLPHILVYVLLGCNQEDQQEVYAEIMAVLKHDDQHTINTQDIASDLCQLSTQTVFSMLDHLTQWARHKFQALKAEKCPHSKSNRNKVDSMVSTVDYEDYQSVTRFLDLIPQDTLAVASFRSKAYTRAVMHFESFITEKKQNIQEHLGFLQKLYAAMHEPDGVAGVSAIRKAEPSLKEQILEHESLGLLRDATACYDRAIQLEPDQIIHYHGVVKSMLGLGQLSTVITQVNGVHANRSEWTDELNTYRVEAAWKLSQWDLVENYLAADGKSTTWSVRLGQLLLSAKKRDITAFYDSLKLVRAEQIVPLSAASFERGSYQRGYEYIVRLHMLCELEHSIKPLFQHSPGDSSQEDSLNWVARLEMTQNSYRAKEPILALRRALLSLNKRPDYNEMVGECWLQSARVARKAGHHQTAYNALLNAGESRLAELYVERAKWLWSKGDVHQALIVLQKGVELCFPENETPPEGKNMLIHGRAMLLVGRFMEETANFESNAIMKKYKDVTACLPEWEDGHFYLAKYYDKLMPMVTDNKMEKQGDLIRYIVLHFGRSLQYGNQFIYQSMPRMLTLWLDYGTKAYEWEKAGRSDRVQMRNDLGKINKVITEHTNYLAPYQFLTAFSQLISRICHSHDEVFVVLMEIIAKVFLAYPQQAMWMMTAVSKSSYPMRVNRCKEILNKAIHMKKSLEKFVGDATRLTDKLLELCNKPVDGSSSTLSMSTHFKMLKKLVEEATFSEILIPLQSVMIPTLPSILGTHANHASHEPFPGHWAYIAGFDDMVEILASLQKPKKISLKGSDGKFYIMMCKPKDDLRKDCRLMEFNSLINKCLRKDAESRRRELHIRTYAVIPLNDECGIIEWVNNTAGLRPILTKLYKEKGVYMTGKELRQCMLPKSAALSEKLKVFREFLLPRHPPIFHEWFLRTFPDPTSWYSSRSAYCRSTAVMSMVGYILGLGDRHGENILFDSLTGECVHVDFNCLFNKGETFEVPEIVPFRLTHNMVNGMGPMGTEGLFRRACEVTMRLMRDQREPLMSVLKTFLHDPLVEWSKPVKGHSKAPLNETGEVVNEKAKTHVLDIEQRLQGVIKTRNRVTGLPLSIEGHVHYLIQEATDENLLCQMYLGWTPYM
# Sequence (Q8WXE1 other isoform, or with tags, fused parts or gaps partner): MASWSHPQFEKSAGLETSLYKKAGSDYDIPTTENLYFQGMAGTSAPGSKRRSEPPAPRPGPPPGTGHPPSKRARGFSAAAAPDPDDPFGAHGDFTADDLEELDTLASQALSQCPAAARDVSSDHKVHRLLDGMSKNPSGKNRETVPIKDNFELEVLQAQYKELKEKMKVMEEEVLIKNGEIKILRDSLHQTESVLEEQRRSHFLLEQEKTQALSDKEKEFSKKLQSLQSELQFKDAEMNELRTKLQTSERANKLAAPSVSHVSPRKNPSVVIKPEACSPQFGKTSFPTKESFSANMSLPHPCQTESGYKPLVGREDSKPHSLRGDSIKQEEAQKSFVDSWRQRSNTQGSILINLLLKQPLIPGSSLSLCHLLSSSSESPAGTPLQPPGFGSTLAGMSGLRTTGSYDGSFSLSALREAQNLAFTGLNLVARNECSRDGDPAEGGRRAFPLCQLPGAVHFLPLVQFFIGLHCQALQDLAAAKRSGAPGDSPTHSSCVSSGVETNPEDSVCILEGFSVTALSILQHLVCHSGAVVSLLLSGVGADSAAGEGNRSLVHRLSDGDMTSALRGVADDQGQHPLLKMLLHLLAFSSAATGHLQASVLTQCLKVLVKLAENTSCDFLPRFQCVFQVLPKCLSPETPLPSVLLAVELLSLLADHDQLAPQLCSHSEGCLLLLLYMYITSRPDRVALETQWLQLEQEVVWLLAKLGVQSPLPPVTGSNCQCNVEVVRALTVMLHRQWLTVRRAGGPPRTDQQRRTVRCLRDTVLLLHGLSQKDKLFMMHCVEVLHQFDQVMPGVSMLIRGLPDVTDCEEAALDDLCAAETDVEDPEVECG
# assay-explanation: Binding assay ATR (TR-FRET tracer displacement)
# test-context: tracer A, TR-FRET; read-out: ATR binding (tracer A) IC50
Bear in mind: pIC50 is minus log10 of a mol/L concentration; give just that figure.

Input: Kindly state the measured pIC50 obtained for c1cc(-c2nccc3c(N4CCCCCC4)cc(N4CCOCC4)nc23)[nH]n1 with full-length human ATR protein (Homo sapiens (Human), UniProt Q13535).
Output: 6.55

Input: Query C[C@@H]1COCCN1c1cc(OCCCCNC(=O)OC(C)(C)C)c2ccnc(-c3ccn[nH]3)c2n1 next
Output: 7.00

Input: Continue with C[C@@H]1COCCN1c1cc(C2=CCNCC2)c2ccnc(-c3ccn[nH]3)c2n1
Output: 7.49

Input: // same read-out, input: CN(c1ccc(F)cc1)c1cc(N2CCOCC2)nc2c(-c3ccn[nH]3)nccc12
Output: 7.46

* * *

# experimental-target: UniProt Q13535
# assay-explanation: Binding assay ATR (TR-FRET tracer displacement)
# test-context: tracer A, TR-FRET; read-out: ATR binding (tracer A) IC50
Counter-ions that a name gives are not always drawn.
endpoint-name: log10(IC50) (log10 of the value in nM)
# values: log10(IC50), units nM

Input: I am curious: what log10(IC50) value has been reported for COc1nccc(-c2cc(N3CCOC[C@H]3C)nc3c(-c4ccn[nH]4)nccc23)c1Cl [Example 106] ?
Output: 1.12

Input: What about this molecule? C[C@@H]1COCCN1c1cc(-c2cncc3ccccc23)c2ccnc(-c3ccn[nH]3)c2n1 [Example 237]
Output: 1.26

Input: Entry C[C@@H]1COCCN1c1cc(-c2ccn(CCF)n2)c2ccnc(-c3ccn[nH]3)c2n1 [Example 158] please
Output: 1.13

Input: Now consider Nc1ccccc1-c1cc(N2CCOCC2)nc2c(-c3ccn[nH]3)nccc12 [Example 343] .
Output: 1.30

Input: C[C@@H]1COCCN1c1cc(N2CCOCC2)nc2c(-c3ccn[nH]3)nccc12 [Example 148] , same question.
Output: 1.68

Input: // query: Cc1cc(N2CCOCC2)nc2c(-c3cc[nH]n3)nccc12 [Example 20, hydrochloride]
Output: 2.91

Input: // same read-out, input: C[C@@H]1COCCN1c1cc(OC(F)F)c2ccnc(-c3ccn[nH]3)c2n1 [Example 172]
Output: 1.92

Input: How about this molecule: CN=S(C)(=O)c1ccc(-c2cc(N3CCOCC3)nc3c(-c4ccn[nH]4)nccc23)cc1 (centres unmarked) [Example 5]
Output: 1.81

* * *

Give measured IC50 for each item. Keep answers brief.
# experimental-target: full-length human ATR protein (Homo sapiens (Human), UniProt Q13535)
# assay-explanation: Binding assay ATR (TR-FRET tracer displacement)
# test-context: tracer A, TR-FRET; read-out: ATR binding (tracer A) IC50
Please state the figure in nM; there is no need to write the unit.

Input: Missing value: IC50, full-length human ATR protein (Homo sapiens (Human), UniProt Q13535), entry C[C@@H]1COCCN1c1cc(N2CCOCC2)c2ccnc(-c3ccn[nH]3)c2n1 . Fill in?
Output: 18.2

Input: For CN1CCN(c2cc(N3CCOCC3)nc3c(-c4ccn[nH]4)nccc23)CC1 then?
Output: 632

Input: Can you handle CSc1cc(N2CCOC[C@H]2C)nc2c(-c3ccn[nH]3)nccc12 next?
Output: 80.7

Input: Same question for CN1CC=C(c2cc(N3CCOCC3)nc3c(-c4ccn[nH]4)nccc23)CC1 please.
Output: 162

Input: Follow-up item: COc1cccc(-c2cc(N3CCOCC3)nc3c(-c4ccn[nH]4)nccc23)c1OC
Output: 325

Input: Continue with COc1ccc2c(c1)cc(-c1cc(N3CCOCC3)nc3c(-c4ccn[nH]4)nccc13)n2C(=O)OC(C)(C)C
Output: 3950

Input: Same question for CC(C)(O)COc1cc(N2CCOCC2)nc2c(-c3ccn[nH]3)nccc12 please.
Output: 293

Input: Follow-up item: Cn1cccc1-c1cc(N2CCOCC2)nc2c(-c3ccn[nH]3)nccc12
Output: 26.6
